Kindly state pull-down binding Z-score for each of the entries shown.
tested on: TO-N3-2 (biotin conjugate); test: pull-down binding Z-score (relative to library population); higher = stronger binding; settings: RNA library: Library-2
Give bare numbers.

| residues | measured |
| --- | --- |
| GGGAGGUAUGAUAUCGUGGUUCCU [hsa-mir-3689e] | 1.03 |

Take each entry in turn and give its pull-down binding Z-score.
1. GAGUUACACAGAAUGUUCUCUAUGAGAACCAAAAAUUGAUUGCCAACCAAUUUAAUAGUGCUAUUGGCAAAAUUCAAGACUC
2. GGAGACAGGUGGUUUCUCAAUCGAUUUACCACAACUCU [SHAPE_invivo_SARS-CoV-2_Motif_209]
3. UAUAGGAAGGAAAUCUUAU [hsa-mir-6129]
4. CACUUAUCUUAGCCUACUGUAAUAAGACAGUAGGUGAGUUAGGUG
5. GGGAACUGGUGAGUUGUACAUAGAAAUGCUUUCUAACUCC [hsa-mir-4499]
6. UUGUGUGGUAUCCGUAUAGUCACAG [hsa-mir-10b]
7. CUGAGAGUGUCAUGGUGGAGCCUCCG [hsa-mir-4784]
8. UUCUUUGAGGAUCUGGCCUAAAGAG [hsa-mir-202]

Given back:
-0.226
-0.516
-0.517
-1.07
0.548
-0.0857
1.55
0.811

// pull-down binding Z-score value for UGGUGGGGGCCGGGGCAGGCCCAGCGAAA [hsa-mir-648] : 1.94
